Taken from patent US20040002526A1.

# target_or_system: PLD (phospholipase D)
# Construct: fused on or other part: N-terminal polyhistidine tag (pFastBac HTc) on either enzyme
# test_details: In vitro assay of PLD activity ([3H]-choline release from labelled PC)
# Assay type: biochemical, human
# assay_context: Table 2, bicyclic thiazolidinones of Formula II; PLD isoform not stated; read-out: IC50
Quick list: pIC50 per entry.
Scale: negative log10 of molar concentration, which is what pIC50 denotes.

## Task API: value(readout= pIC50, system= PLD (phospholipase D), query= CCOC(=O)C1=C(C)N=c2s/c(=C\c3ccc(-c4ccc(C(=O)O)cc4)o3)c(=O)n2C1c1ccc(C)cc1 (stereo not shown) )
## Result 5.46

## Task # returns recorded pIC50 (system: PLD (phospholipase D)) for CCOC(=O)C1=C(C)N=c2s/c(=C/c3ccc(-c4cccc(C(=O)O)c4)o3)c(=O)n2C1c1ccccc1OC (stereo not shown)
## Result 5.39

## Task Give PLD (phospholipase D) pIC50 for CCOC(=O)C1=C(C)N=c2s/c(=C\c3ccc(-c4ccc(C(=O)O)cc4)o3)c(=O)n2C1c1ccc(Cl)cc1 (stereo not shown)
## Result 5.47

## Task Please tell me: pIC50 of CCOC(=O)C1=C(C)N=c2s/c(=C\c3ccc(-c4cccc(C(=O)O)c4)o3)c(=O)n2C1c1ccc(OC)cc1 (stereo not shown) , system PLD (phospholipase D)?
## Result 5.70

## Task Lookup: pIC50 / PLD (phospholipase D) / CCOC(=O)C1=C(C)N=c2s/c(=C\c3ccc(-c4cccc(C(=O)O)c4)o3)c(=O)n2C1c1ccc2c(c1)OCO2 (stereo not shown)
## Result 5.57

## Task What is its pIC50 for PLD (phospholipase D)? Entry: CCOC(=O)C1=C(C)N=c2s/c(=C\c3ccc(-c4cccc(C(=O)O)c4)o3)c(=O)n2C1c1ccc(C)cc1 (stereo not shown)
## Result 5.55

## Task # value lookup — system PLD (phospholipase D), readout pIC50, item CCOC(=O)C1=C(C)N=c2s/c(=C\c3ccc(-c4cccc(C(=O)O)c4)o3)c(=O)n2C1c1ccc(N(C)C)cc1 (stereo not shown)
## Result 6.15

## Task Param readout= pIC50; system= PLD (phospholipase D); entry= CCOC(=O)C1=C(C)N=c2s/c(=C/c3ccc(-c4ccc(Cl)c(C(=O)O)c4)o3)c(=O)n2C1c1ccccc1OC (stereo not shown) ; returns value.
## Result 5.59

## Task What is its pIC50 for PLD (phospholipase D)? Entry: CCOC(=O)C1=C(C)N=c2s/c(=C\c3ccc(-c4ccc(C(=O)O)cc4)o3)c(=O)n2C1c1ccc2c(c1)OCO2 (stereo not shown)
## Result 5.64

## Task Request - read-out pIC50 | tested on PLD (phospholipase D) | compound CCOC(=O)C1=C(C)N=c2s/c(=C\c3ccc(-c4cccc(C(=O)O)c4)o3)c(=O)n2C1c1ccccc1Cl (stereo not shown)
## Result 5.40

## Task Give recorded pIC50 with PLD (phospholipase D) for the following compound: CCOC(=O)C1=C(C)N=c2s/c(=C\c3ccc(-c4ccc(C(=O)O)cc4)o3)c(=O)n2C1c1c(OC)ccc2ccccc12 (stereo not shown)
## Result 5.43

## Task Notebook: pull reported pIC50 for PLD (phospholipase D), entry CCOC(=O)C1=C(C)N=c2s/c(=C\c3ccc(-c4ccc(Cl)c(C(=O)O)c4)o3)c(=O)n2C1c1ccc(N(C)C)cc1 (stereo not shown)
## Result 5.72

## Task What measured pIC50 is associated with CCOC(=O)C1=C(C)N=c2s/c(=C\c3ccc(-c4ccccc4C(=O)O)o3)c(=O)n2C1c1ccc(SC)cc1 (stereo not shown) on PLD (phospholipase D)?
## Result 5.40

## Task Give PLD (phospholipase D) pIC50 for CCOC(=O)C1=C(C)N=c2s/c(=C\c3ccc(-c4ccc(C(=O)O)cc4)o3)c(=O)n2C1c1ccc(N(C)C)cc1 (stereo not shown)
## Result 5.57

## Task Can you look up pIC50 on PLD (phospholipase D) for CCOC(=O)C1=C(C)N=c2s/c(=C\c3ccc(-c4cccc(C(=O)O)c4)o3)c(=O)n2C1c1ccccc1 (stereo not shown) ?
## Result 5.37

## Task GET /values?readout=pIC50&system=PLD (phospholipase D)&item= CCOC(=O)C1=C(C)N=c2s/c(=C\c3ccc(-c4ccc(C(=O)O)cc4)o3)c(=O)n2C1c1ccc(OC)c(OC)c1 (stereo not shown)
## Result 5.35
